# Tested on: S6 Ribosomal Protein phosphorylation Ser235/236 in TSC1 null mouse embryo fibroblast (MEF) cells
# TEST: Reverse protein array, S6 Ribosomal Protein phosphorylation in TSC1 null MEF cells
# Type: cell-based
# CONDITION_DETAILS: 1 h, TSC1-/- MEFs, 60 minutes, read-out: p-S6 IC50
Form field: IC50 (one value per entry).

[
  {
    "CPD_SMILES": "CCOCc1cc(-c2ccc3ncc4c(c3c2)n(-c2ccc(F)nc2C)c(=O)n4C)cnc1N",
    "IC50, nM": 8
  },
  {
    "CPD_SMILES": "COCCOc1ccc(-n2c(=O)n(C)c3cnc4ccc(-c5cnc(COC)c(OC)c5)cc4c32)c(C)n1",
    "IC50, nM": 15
  },
  {
    "CPD_SMILES": "COCCOc1cncc(-c2ccc3ncc4c(c3c2)n(-c2ccc(OC)nc2OC)c(=O)n4C)c1",
    "IC50, nM": 7
  },
  {
    "CPD_SMILES": "CCNc1ncc(-c2ccc3ncc4c(c3c2)n(-c2ccc(N3CC[C@@H](O)C3)nc2C)c(=O)n4C)cc1COCC",
    "IC50, nM": 8
  },
  {
    "CPD_SMILES": "Cc1ccc(-n2c(=O)n(C)c3cnc4ccc(-c5cnc(N(C)C)nc5)cc4c32)c(C)n1",
    "IC50, nM": 10
  },
  {
    "CPD_SMILES": "CNc1cncc(-c2ccc3ncc4c(c3c2)n(-c2cccnc2C)c(=O)n4C)c1",
    "IC50, nM": 6
  }
]

----------
# SYSTEM: PI3K beta (Homo sapiens)
# Construct: for the full-length p110-b subunit are generated and fused by overlapping PCR; His tag (C); made in house; host or cells: baculovirus BV949; Tn5 (Trichoplusia ni) or TiniPro insect cells
# Sequence (P42338 with tags, fused parts or gaps limits assumed): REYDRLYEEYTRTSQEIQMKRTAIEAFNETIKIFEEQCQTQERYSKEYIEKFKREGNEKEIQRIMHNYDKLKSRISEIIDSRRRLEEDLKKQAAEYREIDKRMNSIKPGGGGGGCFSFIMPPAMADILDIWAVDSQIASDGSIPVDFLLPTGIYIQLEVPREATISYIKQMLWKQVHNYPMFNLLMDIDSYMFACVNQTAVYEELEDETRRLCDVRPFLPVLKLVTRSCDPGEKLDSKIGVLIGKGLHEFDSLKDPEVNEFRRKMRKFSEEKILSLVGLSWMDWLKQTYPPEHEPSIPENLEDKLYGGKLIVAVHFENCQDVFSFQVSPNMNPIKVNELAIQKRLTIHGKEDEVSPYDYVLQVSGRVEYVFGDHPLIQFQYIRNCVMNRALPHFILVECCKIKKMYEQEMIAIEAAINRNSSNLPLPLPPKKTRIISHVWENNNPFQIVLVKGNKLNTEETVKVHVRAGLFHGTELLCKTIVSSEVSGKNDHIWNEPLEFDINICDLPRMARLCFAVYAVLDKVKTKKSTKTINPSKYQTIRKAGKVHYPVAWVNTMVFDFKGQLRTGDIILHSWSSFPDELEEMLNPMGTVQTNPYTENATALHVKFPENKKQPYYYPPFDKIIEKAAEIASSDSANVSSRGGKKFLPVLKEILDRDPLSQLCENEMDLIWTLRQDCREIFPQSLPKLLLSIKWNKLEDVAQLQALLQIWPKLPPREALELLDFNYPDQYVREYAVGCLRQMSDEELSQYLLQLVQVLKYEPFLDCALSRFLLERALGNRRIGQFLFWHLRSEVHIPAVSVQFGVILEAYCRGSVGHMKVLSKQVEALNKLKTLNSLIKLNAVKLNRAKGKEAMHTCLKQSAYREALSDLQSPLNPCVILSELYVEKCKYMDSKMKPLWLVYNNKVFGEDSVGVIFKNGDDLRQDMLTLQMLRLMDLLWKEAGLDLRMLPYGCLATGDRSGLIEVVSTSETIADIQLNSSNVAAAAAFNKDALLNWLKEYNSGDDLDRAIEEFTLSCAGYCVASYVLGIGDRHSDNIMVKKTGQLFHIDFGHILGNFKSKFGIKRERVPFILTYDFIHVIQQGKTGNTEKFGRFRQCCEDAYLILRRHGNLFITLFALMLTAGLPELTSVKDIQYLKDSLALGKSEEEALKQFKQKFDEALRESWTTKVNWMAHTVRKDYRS
# TEST: PI3K beta kinase assay (Kinase-Glo luminescence)
# Type: biochemical
# CONDITION_DETAILS: read-out: EPK_PI3Kbeta/IC50
pIC50: −log10 of the molar value.

[
  {
    "MOLECULE": "COCc1ncc(-c2ccc3ncc4c(c3c2)n(-c2ccc(N3CCC3)nc2C)c(=O)n4C)cc1OC(C)C",
    "SYSTEM": "PI3K beta (Homo sapiens)",
    "pIC50": 6.71
  },
  {
    "MOLECULE": "COc1ccc(-n2c(=O)n(C)c3cnc4ccc(-c5cnc(C(OC)OC)c(OC)c5)cc4c32)c(OC)n1",
    "SYSTEM": "PI3K beta (Homo sapiens)",
    "pIC50": 6.58
  },
  {
    "MOLECULE": "Cc1nc(F)ccc1-n1c(=O)n(C)c2cnc3ccc(-c4cncc(C(C)(C)O)c4)cc3c21",
    "SYSTEM": "PI3K beta (Homo sapiens)",
    "pIC50": 7.35
  },
  {
    "MOLECULE": "Cc1nc(N2CCC2)ccc1-n1c(=O)n(C)c2cnc3ccc(-c4cncc(OC(C)C)c4)cc3c21",
    "SYSTEM": "PI3K beta (Homo sapiens)",
    "pIC50": 6.77
  },
  {
    "MOLECULE": "Cc1ccc(-n2c(=O)n(C)c3cnc4ccc(-c5cnc(N(C)C)nc5)cc4c32)c(C)n1",
    "SYSTEM": "PI3K beta (Homo sapiens)",
    "pIC50": 6.40
  },
  {
    "MOLECULE": "CNc1ncc(-c2ccc3ncc4c(c3c2)n(-c2ccc(C(C)(C)O)nc2C)c(=O)n4C)cn1",
    "SYSTEM": "PI3K beta (Homo sapiens)",
    "pIC50": 6.98
  },
  {
    "MOLECULE": "CCOc1ccc(-c2ccc3ncc4c(c3c2)n(-c2ccc(NC(=O)COC)nc2C)c(=O)n4C)cn1",
    "SYSTEM": "PI3K beta (Homo sapiens)",
    "pIC50": 6.05
  },
  {
    "MOLECULE": "COc1ncc(-c2ccc3ncc4c(c3c2)n(-c2ccc(N3CC[C@H](O)C3)nc2C)c(=O)n4C)c(OC)n1",
    "SYSTEM": "PI3K beta (Homo sapiens)",
    "pIC50": 6.72
  },
  {
    "MOLECULE": "CNc1ncc(-c2ccc3ncc4c(c3c2)n(-c2ccc(N3CCC(O)C3)nc2C)c(=O)n4C)cn1 (centres unmarked)",
    "SYSTEM": "PI3K beta (Homo sapiens)",
    "pIC50": 6.91
  },
  {
    "MOLECULE": "Cc1nc(N2CCC(O)C2)ccc1-n1c(=O)n(C)c2cnc3ccc(-c4cnc(N)c(C(F)(F)F)c4)cc3c21 (centres unmarked)",
    "SYSTEM": "PI3K beta (Homo sapiens)",
    "pIC50": 7.44
  },
  {
    "MOLECULE": "COCc1cc(-c2ccc3ncc4c(c3c2)n(-c2ccc(C(F)(F)F)nc2C)c(=O)n4C)cnc1N",
    "SYSTEM": "PI3K beta (Homo sapiens)",
    "pIC50": 7.66
  }
]
